- assay-explanation: Evaluation of solid stability (storage 2 weeks; total impurity by HPLC, water content, powder X-ray diffraction)
- Format: physicochemical
- settings: e-2: 60° C., 2 weeks (well closed; slightly open for Form I)
quantity-measured: total impurity (%)

Study these solved cases before continuing.
- CC(=O)O.COc1cc2nccc(Oc3ccc(NC(=O)NC4CC4)c(Cl)c3)c2cc1C(N)=O.CS(=O)(=O)O: 0.84
- COc1cc2nccc(Oc3ccc(NC(=O)NC4CC4)c(Cl)c3)c2cc1C(N)=O.CS(=O)(=O)O [mesylate (Form C)]: 2.18

P: CCS(=O)(=O)O.COc1cc2nccc(Oc3ccc(NC(=O)NC4CC4)c(Cl)c3)c2cc1C(N)=O [esylate (Form β)]
Q: COc1cc2nccc(Oc3ccc(NC(=O)NC4CC4)c(Cl)c3)c2cc1C(N)=O.CS(=O)(=O)O [mesylate (Form A)]
Query string: I would appreciate it if you could say which entry, P or Q , has the lower total impurity value. Response format: the label of the selected entry.
Result string: P
(P: 0.51%, Q: 3.97%)

###

- assay-explanation: Evaluation of solid stability (storage 2 weeks; total impurity by HPLC, water content, powder X-ray diffraction)
- Format: physicochemical
- settings: solid stability test, initial
quantity-measured: water content (%)

P: CC(=O)O.COc1cc2nccc(Oc3ccc(NC(=O)NC4CC4)c(Cl)c3)c2cc1C(N)=O.CS(=O)(=O)O
Q: COc1cc2nccc(Oc3ccc(NC(=O)NC4CC4)c(Cl)c3)c2cc1C(N)=O.CS(=O)(=O)O [mesylate (Form A)]
R: CCS(=O)(=O)O.COc1cc2nccc(Oc3ccc(NC(=O)NC4CC4)c(Cl)c3)c2cc1C(N)=O [esylate (Form β)]
S: COc1cc2nccc(Oc3ccc(NC(=O)NC4CC4)c(Cl)c3)c2cc1C(N)=O.CS(=O)(=O)O [mesylate (Form C)]
Query string: Consider the compounds listed above. Rank them by water content in ascending numerical order. Form field (ranking): labels in requested order.
Result string: Q, S, R, P
(Q: 0.3%, S: 0.7%, R: 1.7%, P: 2.9%)

###

- assay-explanation: Evaluation of solid stability (storage 2 weeks; total impurity by HPLC, water content, powder X-ray diffraction)
- Format: physicochemical
- settings: c-2: 25° C., light irradiation 1000 lx, well closed, 2 weeks
- Method: 2. Storage Conditions for the Solid Stability Test (Period: 2 Weeks) a-2. −20° C. (well closed) b-2. 25° C., light irradiation (1000 1×; shading with aluminum foil, well closed) c-2. 25° C., light irradiation (1000 1×; well closed) […] e-2. 60° C. […] • Injection amount: 10 μL • Detection: ultraviolet absorbance photometer (wavelength: 252 nm) • Temperature of auto sampler: constant temperature in vicinity of 10° C. […]
quantity-measured: total impurity (%)

- COc1cc2nccc(Oc3ccc(NC(=O)NC4CC4)c(Cl)c3)c2cc1C(N)=O.CS(=O)(=O)O [mesylate (Form C)]: 2.22

P: CC(=O)O.COc1cc2nccc(Oc3ccc(NC(=O)NC4CC4)c(Cl)c3)c2cc1C(N)=O.CS(=O)(=O)O
Q: COc1cc2nccc(Oc3ccc(NC(=O)NC4CC4)c(Cl)c3)c2cc1C(N)=O.CS(=O)(=O)O [mesylate (Form A)]
R: CCS(=O)(=O)O.COc1cc2nccc(Oc3ccc(NC(=O)NC4CC4)c(Cl)c3)c2cc1C(N)=O [esylate (Form β)]
Query string: Parameters: sort_field (total impurity), sort_dir (desc). Form field (ranking): labels in requested order.
Result string: Q, P, R
